Target: Nuclear receptor subfamily 5 group A member 2 (Homo sapiens) (UniProt O00482)
Sequence (O00482 whole entry, looked up): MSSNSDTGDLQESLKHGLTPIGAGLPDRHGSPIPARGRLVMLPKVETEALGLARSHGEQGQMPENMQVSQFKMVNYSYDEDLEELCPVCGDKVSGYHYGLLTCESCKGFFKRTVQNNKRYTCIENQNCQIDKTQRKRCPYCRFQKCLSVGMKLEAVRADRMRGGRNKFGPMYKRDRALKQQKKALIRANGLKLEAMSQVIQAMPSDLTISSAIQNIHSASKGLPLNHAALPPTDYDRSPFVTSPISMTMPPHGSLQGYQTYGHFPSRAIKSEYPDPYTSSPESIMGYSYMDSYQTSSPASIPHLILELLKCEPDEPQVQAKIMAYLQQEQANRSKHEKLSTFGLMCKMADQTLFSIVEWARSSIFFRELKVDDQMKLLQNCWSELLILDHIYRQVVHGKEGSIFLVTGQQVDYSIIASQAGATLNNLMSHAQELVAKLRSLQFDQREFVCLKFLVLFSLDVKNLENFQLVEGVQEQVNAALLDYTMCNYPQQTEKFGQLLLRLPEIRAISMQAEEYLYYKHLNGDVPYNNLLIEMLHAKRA
Assay: LRH-1 (NR5A2) inverse agonists, retest, confirmation, cell-based, luminescence (AID 651613);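 also: HEK293T cells co-transfected with LRH-1 and StAR promoter luciferase reporter; 0% = vehicle wells and 100% = parental cells lacking receptor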
Settings: cell-based LRH-1 luciferase reporter, inverse agonism; at 3.6 µM; hits give high values
measured-property: inhibition (%)

- CCN(CC)CCC(=O)N1C/C(=C/c2ccccc2)C(=O)/C(=C\c2ccccc2)C1: 84.4
- COc1ccc(C(NC(=O)C(C)C)c2ccc3cccnc3c2O)cc1 (stereo not drawn): 103
- Cc1cc(Br)ccc1NC(=O)CSc1nnc(CN2CCOCC2)n1C: 47.8

====

Biological target: Nuclear receptor coactivator 1 (Homo sapiens) (UniProt Q15788)
Sequence (Q15788 whole entry, looked up): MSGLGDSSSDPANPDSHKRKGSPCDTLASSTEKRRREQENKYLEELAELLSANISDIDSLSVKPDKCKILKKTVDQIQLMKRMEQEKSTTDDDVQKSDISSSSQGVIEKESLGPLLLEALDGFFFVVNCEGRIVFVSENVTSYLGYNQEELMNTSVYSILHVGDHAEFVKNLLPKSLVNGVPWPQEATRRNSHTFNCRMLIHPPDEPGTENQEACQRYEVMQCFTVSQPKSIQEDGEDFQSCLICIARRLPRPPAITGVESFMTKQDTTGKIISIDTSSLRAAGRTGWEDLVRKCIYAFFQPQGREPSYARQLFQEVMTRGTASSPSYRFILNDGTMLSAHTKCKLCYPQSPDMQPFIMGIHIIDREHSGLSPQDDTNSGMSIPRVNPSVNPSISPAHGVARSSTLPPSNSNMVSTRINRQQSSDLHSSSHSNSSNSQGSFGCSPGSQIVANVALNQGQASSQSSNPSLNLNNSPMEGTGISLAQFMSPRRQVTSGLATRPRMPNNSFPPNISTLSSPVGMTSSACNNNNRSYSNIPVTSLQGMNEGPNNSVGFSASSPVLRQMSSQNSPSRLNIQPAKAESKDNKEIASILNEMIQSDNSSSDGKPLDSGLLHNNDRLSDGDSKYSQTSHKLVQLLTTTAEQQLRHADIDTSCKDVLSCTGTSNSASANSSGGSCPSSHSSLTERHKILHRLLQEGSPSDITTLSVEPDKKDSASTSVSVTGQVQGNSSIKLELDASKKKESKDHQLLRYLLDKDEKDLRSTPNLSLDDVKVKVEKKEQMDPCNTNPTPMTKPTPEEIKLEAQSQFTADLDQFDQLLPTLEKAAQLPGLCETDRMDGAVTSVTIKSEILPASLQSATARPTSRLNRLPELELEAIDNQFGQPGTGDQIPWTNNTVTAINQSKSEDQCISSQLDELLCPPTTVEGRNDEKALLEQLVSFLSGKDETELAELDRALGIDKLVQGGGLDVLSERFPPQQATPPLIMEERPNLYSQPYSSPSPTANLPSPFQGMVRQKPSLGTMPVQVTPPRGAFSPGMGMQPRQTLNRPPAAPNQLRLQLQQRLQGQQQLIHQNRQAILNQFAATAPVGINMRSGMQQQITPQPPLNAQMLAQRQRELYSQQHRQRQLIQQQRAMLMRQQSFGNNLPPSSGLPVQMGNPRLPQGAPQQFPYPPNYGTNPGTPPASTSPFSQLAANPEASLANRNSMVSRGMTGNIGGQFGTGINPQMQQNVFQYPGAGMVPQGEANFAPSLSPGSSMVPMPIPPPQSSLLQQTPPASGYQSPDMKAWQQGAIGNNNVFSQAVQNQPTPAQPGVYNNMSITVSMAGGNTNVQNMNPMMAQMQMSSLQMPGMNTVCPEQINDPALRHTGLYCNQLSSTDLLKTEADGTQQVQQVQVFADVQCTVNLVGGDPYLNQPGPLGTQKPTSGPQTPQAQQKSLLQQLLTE
Experiment: SRC1 coactivator transcriptional activity inhibitors, confirmation, cell-based, luminescence, quadruplicate (AID 588820);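 also: 0% = DMSO wells and 100% = gossypol 36 µM treated wells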
Settings: HEK293 GAL4-SRC1 luciferase reporter, at 3.6 µM
The source made the active and inactive calls.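 The calls were made as follows: active = mean inhibition above 46.68%, the untreated control wells mean plus 3 SD; inactive = the rest.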
Outcome codes: label 1 = active, label 0 = inactive

• Cc1cc(/C=c2/sc3nc4ccccc4n3c2=O)c(C)n1-c1ccccn1 = label 1
• CN(C)c1ccc(C(=S)Nc2ccccc2)cc1 = label 0
• OC[C@H]1O[C@@H](n2cnc3c(NCc4ccco4)ncnc32)[C@H](O)[C@@H]1O = label 0
• COc1ccc(CNC(=O)c2ccc(N3CCC4(CC3)CC(c3ccc(Cl)cc3)=NO4)c([N+](=O)[O-])c2)cc1 = label 0
• CC(C)(C)OC(=O)N(CCc1ccccc1)Cc1ccc(OCc2cccc(NC(=O)C3CCCC3)c2)cc1 = label 0
• c1ccc(-c2cc(N3CCCCC3)nc(-c3ccccc3)n2)cc1 = label 0
